- Tested on: SN12C renal
- METHOD_SUMMARY: NCI tumour cell line growth inhibition, 48 h
Recorded measurements of GI50, one per entry
QUANTITY_NAME: GI50

[
  {
    "COMPOUND": "COc1ncc(-c2ccc3nccc(C#CCCCCC(=O)O)c3c2)cc1NS(=O)(=O)c1ccc(F)cc1F",
    "QUANTITY_NAME": "GI50",
    "OBS_VALUE": "2550 nM"
  },
  {
    "COMPOUND": "CCOC(=O)c1ccc2c(c1)[n+](=O)c(C(=O)C1CCCS1)c(C(F)(F)F)n2[O-] (stereo not drawn)",
    "QUANTITY_NAME": "GI50",
    "OBS_VALUE": "448 nM"
  },
  {
    "COMPOUND": "O=C1c2ccccc2C(=O)c2c1c(=O)c(=O)c1ccccc1c(=O)n2Cc1ccccc1",
    "QUANTITY_NAME": "GI50",
    "OBS_VALUE": "> 100000 nM"
  }
]

----------
- Tested on: EKVX NSCLC
- METHOD_SUMMARY: NCI tumour cell line growth inhibition, 48 h
QUANTITY_NAME: GI50

[
  {
    "COMPOUND": "O=C1c2ccccc2C(=O)c2c1c(=O)c(=O)c1ccccc1c(=O)n2Cc1ccccc1",
    "OBS_VALUE": "> 100 µM"
  },
  {
    "COMPOUND": "CNC(=O)C(CCc1ccccc1)NC(=O)C(CC(=O)NO)CC(C)C (stereo not given)",
    "OBS_VALUE": "8.31 µM"
  },
  {
    "COMPOUND": "C=C1C(=O)O[C@H]2[C@H]1CC/C(CNC(=O)c1cccc3ccccc13)=C\\CC[C@@]1(C)O[C@@H]21",
    "OBS_VALUE": "2.2 µM"
  },
  {
    "COMPOUND": "COc1cc(C(=O)c2c(-c3ccccc3)oc3c(OC)cccc23)cc(OC)c1O",
    "OBS_VALUE": "0.876 µM"
  },
  {
    "COMPOUND": "COc1ccc2c(c1)oc1c(C)c3c(c(C)c12)C(=O)N(N)C3=O",
    "OBS_VALUE": "> 100 µM"
  }
]

----------
- Test system: HOP-62 NSCLC
- METHOD_SUMMARY: NCI tumour cell line growth inhibition, 48 h

[
  {
    "COMPOUND": "Oc1c(CN2CCOCC2)ccc(CN2CCOCC2)c1O",
    "TGI": "> 100 µM"
  },
  {
    "COMPOUND": "COc1ccc2c(c1)C(N)=C(c1ccccc1OC)C2=O",
    "TGI": "> 100 µM"
  },
  {
    "COMPOUND": "O=C1C=CC(=O)c2c(O)c(N3CCN(c4ccccn4)CC3)c(Cl)c(O)c21",
    "TGI": "9.58 µM"
  },
  {
    "COMPOUND": "COC(=O)C1(NC(=O)C(CC(=O)OCc2ccccc2)NC(=O)OCc2ccccc2)CCCCCCC1 (stereo unspecified)",
    "TGI": "> 100 µM"
  },
  {
    "COMPOUND": "CCCSc1ccc2nc(NC(=O)OC)[nH]c2c1",
    "TGI": "> 68.7 µM"
  },
  {
    "COMPOUND": "CN(C)c1[se]nc2c1c(=O)n(C)c(=O)n2C",
    "TGI": "> 100 µM"
  }
]
